Reported values of GI50 for individual entries
System: HOP-62
assayNotes: NCI tumour cell line growth inhibition, 48 h
Calls of active or inactive are those of the source. Cut-off read from the data, not from the text of the source: active = GI50 up to about 1.1 µM and inactive = higher.
attributeMeasured: GI50

| molecule | experimentalValue |
| --- | --- |
| CC(C)(C)[Si](C)(C)OCC1CCC(n2cnc3c(=O)[nH]cnc32)O1 (centres undefined) | > 100 µM (inactive) |
| Cc1c2cnccc2c(C)c2c1c1ccccc1n2CC1CO1 (centres undefined) | 1.64 µM (inactive) |
| C=CC(C)(C)n1cc(C2=C3OC(=O)C(c4cn(C(C)(C)C=C)c5ccccc45)=C3OC2=O)c2ccccc21 | > 100 µM (inactive) |
| CCN(CC)c1ccc2cc(C(=O)NCc3ccccc3)c(=N)oc2c1 | 59.8 µM (inactive) |
| CC(=O)c1ccc2c(ccc(=O)n2C)c1 | > 100 µM (inactive) |
| CN(C)N1C(=C(C#N)C#N)C(c2ccccc2)CC1C#N (centres undefined) | > 100 µM (inactive) |
| COc1cccc(NC(=O)CSc2nnc(-c3ccc(NC(C)=O)cc3)o2)c1 | > 100 µM (inactive) |
| CC(C(O)c1ccccc1)N(C)/N=N/c1nc2c([nH]1)c(=O)n(C)c(=O)n2C (centres undefined) | > 100 µM (inactive) |
| CN(C)CC/C(=N\Nc1ccccc1)c1ccccc1 | 13.4 µM (inactive) |
| COc1ccc(OC)c([N+](=O)[O-])c1-c1nc2sc(Cl)cn2c1/C=N/N=C(N)N | 55.8 µM (inactive) |
| NC(=O)c1c[se]c(C2OC(COP(=O)(O)CP(=O)(O)OCC3OC(n4cnc5c(N)ncnc54)C(O)C3O)C(O)C2O)n1 (centres undefined) | > 100 µM (inactive) |
| CCC1OC(=O)CC(O)C(C)C(OC2OC(C)CC(N(C)C)C2O)C(CC=O)CC(C)C(=O)/C=C/C2(C)OC2C1C (centres undefined) | 25.2 µM (inactive) |
| CC1=NN=C(N)NC1=CC(Sc1ccc(Cl)cc1)c1c(O)ccc2ccccc12 (centres undefined) | 20.2 µM (inactive) |
| COc1cc2c(cc1C[N+](C)(C)CSc1ccccc1)-c1ccccc1CC2 | 11.4 µM (inactive) |
